# EXPERIMENTAL TARGET: UniProt P35414
# Sequence (P35414 whole entry): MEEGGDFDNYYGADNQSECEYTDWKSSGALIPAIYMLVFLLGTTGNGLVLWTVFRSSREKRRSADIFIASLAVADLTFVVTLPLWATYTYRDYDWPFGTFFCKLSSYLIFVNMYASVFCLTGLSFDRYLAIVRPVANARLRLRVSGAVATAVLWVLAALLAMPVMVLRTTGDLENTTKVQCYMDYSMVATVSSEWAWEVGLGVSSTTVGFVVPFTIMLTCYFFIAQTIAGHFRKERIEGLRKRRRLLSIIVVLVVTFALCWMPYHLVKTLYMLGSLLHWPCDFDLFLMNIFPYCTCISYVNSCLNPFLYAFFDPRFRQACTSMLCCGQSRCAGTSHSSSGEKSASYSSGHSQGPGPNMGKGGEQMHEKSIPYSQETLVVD
ENDPOINT NAME: EC50

Q: Which EC50 is listed for COc1cccc(OC)c1-c1cc(C(=O)N[C@@H](CCc2ccccc2)CC(=O)O)nn1CC(C)C ?
A: > 10 µM

---

# EXPERIMENTAL TARGET: UniProt:P30556
# Sequence (P30556 whole entry): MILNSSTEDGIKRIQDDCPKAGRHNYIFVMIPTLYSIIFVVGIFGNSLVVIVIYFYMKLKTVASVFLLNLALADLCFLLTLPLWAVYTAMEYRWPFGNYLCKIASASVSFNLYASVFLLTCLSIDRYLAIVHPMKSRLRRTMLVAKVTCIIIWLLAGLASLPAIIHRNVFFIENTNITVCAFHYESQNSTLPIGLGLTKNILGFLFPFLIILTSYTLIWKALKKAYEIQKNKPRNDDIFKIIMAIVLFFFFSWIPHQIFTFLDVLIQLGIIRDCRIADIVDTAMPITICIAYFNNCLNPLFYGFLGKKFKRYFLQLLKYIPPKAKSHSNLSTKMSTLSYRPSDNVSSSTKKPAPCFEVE
# ASSAY EXPLANATION: Agonist activity at human AGTR1 stably expressed in CHO cells assessed as increase in intracellular calcium mobilization measured at 1 sec intervals for 90 sec by calcium 5 dye based FLIPR assay
Recorded EC50 by entry

Known EC50 results, listed for orientation:
Q: Please provide the recorded EC50 for CC[C@@H](O)CNC(=O)C[C@H](CCC1CCCCC1)NC(=O)c1cc(-c2c(OC)cccc2OC)n(CC(C)C)n1 , tested on UniProt:P30556.
A: > 10 µM

Q: Please provide the recorded EC50 for COc1cccc(OC)c1-c1cc(C(=O)N[C@@H](CCC2CCCCC2)CC(=O)NC2CCC2)nn1C1CCCC1 , tested on UniProt:P30556.
A: > 10 µM

Please examine the following record next.
Q: Please provide the recorded EC50 for CCC(O)CNC(=O)C[C@H](CCC1CCCCC1)NC(=O)c1cc(-c2c(OC)cccc2OC)n(CC(C)C)n1 (stereo partly drawn) , tested on UniProt:P30556.
A: > 10 µM

---

# EXPERIMENTAL TARGET: Apelin receptor (Homo sapiens, UniProt P35414)
# Sequence (P35414 whole entry): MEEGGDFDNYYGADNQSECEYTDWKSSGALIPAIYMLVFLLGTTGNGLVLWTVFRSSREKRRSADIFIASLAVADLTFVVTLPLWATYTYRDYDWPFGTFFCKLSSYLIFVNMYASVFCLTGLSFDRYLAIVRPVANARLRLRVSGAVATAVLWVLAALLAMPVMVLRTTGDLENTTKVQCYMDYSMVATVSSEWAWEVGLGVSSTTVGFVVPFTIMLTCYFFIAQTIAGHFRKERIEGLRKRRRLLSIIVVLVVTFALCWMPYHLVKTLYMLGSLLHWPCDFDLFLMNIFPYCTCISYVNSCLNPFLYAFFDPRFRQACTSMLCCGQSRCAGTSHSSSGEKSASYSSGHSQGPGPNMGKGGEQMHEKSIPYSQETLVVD
ENDPOINT NAME: EC50

Q: Please provide the recorded EC50 for COc1cccc(OC)c1-c1cc(C(=O)N[C@@H](CCc2ccccc2)CC(=O)O)nn1CC(C)C , tested on Apelin receptor (Homo sapiens, UniProt P35414).
A: > 10 µM
